Target: HCN1 (Homo sapiens (Human))
Sequence (O60741 whole entry, species assumed): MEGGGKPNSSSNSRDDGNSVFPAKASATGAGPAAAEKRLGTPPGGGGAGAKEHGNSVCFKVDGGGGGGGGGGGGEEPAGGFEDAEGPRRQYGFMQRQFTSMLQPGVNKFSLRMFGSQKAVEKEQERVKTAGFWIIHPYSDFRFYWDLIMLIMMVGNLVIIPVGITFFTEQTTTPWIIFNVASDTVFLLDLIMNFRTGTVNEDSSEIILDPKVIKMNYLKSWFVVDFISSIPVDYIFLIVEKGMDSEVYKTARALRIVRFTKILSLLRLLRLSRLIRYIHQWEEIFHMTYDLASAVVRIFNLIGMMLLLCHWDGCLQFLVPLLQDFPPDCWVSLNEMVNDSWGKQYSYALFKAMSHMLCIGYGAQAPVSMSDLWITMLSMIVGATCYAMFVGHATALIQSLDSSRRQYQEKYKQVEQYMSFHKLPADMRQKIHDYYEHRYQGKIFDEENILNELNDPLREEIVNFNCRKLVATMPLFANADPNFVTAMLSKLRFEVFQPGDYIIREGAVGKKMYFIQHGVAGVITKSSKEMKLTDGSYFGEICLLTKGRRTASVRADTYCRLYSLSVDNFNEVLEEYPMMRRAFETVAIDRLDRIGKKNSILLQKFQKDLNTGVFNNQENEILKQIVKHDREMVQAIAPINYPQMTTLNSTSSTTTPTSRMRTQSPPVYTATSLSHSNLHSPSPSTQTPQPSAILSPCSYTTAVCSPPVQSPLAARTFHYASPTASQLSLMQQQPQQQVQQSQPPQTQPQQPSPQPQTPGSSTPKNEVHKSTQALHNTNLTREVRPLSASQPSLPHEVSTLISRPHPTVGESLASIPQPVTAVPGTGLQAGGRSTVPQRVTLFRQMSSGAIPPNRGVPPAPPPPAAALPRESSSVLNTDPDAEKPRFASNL
Assay: HCN1 current assay using PatchXpress 7000A
Format: cell-based
Settings: PatchXpress protocol; read-out: PX HCN1 IC50
pIC50: −log10 of the molar value. Counter-ions that a name gives are not always drawn.
// F strictly below 6 in pIC50; T otherwise

Compound: Cn1nc(-c2ccccc2[C@@H](N)Cc2ccccn2)c2ccccc21 [Example 60, hydrochloride]
Target: HCN1 (Homo sapiens (Human))
Group label: F
//
Compound: Cc1cccc(C[C@H](N)c2ccccc2-c2noc3ccccc23)n1 [Example 114, hydrochloride]
Target: HCN1 (Homo sapiens (Human))
Group label: F
//
Compound: N#Cc1ccc(F)c(C[C@H](N)c2ccccc2-c2noc3ccccc23)n1 [Example 71, formate]
Target: HCN1 (Homo sapiens (Human))
Group label: F
//
Compound: N#Cc1cccc(C[C@H](N)c2ccccc2-c2noc3ccccc23)n1 [Example 116, hydrochloride]
Target: HCN1 (Homo sapiens (Human))
Group label: F
//
Compound: N#Cc1nc(C[C@H](N)c2ccccc2-c2noc3ccccc23)ccc1F [Example 6, hydrochloride]
Target: HCN1 (Homo sapiens (Human))
Group label: F
//
Compound: Cc1ccc(S(C)(=O)=O)nc1C[C@H](N)c1ccccc1-c1noc2ccccc12 [Example 125, hydrochloride]
Target: HCN1 (Homo sapiens (Human))
Group label: T

----------
Reported IC50 values, hNav1.5 (Homo sapiens (Human)).
Structures can show the parent of a compound that is named as a salt.

Compound: CS(=O)(=O)c1ccc(F)c(C[C@H](N)c2ccccc2-c2noc3cc(Cl)ccc23)n1 [Example 13, hydrochloride]
IC50: 15.1 µM

Compound: Cc1ccc2c(-c3ccccc3[C@@H](N)Cc3nc(S(C)(=O)=O)ccc3F)noc2c1 [Example 11, hydrochloride]
IC50: 21.4 µM

Compound: Cc1ccc(S(C)(=O)=O)nc1C[C@H](N)c1ccccc1-c1noc2cc(F)ccc12 [Example 24, hydrochloride]
IC50: 22.4 µM

Compound: CS(=O)(=O)c1ccc(F)c(C[C@H](N)c2ccccc2-c2noc3cc(F)ccc23)n1 [Example 20, hydrochloride]
IC50: 28.1 µM

----------
Target: MDR1 (P-glycoprotein) (Homo sapiens (Human))
Sequence (P08183 whole entry): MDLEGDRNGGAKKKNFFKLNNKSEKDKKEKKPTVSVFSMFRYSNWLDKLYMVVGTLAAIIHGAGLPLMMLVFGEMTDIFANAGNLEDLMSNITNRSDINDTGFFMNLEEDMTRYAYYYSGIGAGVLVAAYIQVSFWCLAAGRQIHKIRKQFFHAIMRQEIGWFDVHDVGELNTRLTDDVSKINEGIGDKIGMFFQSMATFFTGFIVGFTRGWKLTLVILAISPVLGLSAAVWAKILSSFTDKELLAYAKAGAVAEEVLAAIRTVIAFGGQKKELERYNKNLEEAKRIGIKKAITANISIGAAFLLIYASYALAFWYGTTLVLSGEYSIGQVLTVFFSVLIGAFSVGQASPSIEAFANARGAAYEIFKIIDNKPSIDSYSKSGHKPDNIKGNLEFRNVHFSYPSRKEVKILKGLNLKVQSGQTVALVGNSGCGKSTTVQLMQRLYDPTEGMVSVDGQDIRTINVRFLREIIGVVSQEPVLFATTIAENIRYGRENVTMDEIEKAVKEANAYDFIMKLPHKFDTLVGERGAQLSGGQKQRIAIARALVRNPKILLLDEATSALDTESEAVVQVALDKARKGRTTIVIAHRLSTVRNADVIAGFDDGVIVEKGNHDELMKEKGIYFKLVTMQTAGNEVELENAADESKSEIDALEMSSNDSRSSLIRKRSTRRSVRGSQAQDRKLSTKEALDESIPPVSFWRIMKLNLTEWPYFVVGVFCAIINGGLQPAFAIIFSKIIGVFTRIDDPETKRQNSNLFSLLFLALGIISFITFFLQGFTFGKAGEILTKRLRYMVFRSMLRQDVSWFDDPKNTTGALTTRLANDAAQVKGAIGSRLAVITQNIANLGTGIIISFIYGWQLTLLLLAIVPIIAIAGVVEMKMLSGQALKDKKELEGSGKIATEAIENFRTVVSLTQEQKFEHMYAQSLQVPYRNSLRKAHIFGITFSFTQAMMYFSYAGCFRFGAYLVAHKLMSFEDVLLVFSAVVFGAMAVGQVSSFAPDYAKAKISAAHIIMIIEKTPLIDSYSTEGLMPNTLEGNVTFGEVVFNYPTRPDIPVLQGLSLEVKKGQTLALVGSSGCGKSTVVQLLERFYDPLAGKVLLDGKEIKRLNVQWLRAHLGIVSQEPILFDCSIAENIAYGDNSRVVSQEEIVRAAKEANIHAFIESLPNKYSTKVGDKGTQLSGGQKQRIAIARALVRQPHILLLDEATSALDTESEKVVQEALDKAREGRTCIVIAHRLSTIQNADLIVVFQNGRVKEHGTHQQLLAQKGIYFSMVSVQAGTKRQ
Test: in vitro
Settings: dog, MDCK-MDR1, pH 7.4
Counter-ions that a name gives are not always drawn.
efflux ratio at 1 h, 10 μM vs 6: at or above is class 1, below is class 0.

Compound: N[C@@H](Cc1cccc(-c2cn[nH]c2)n1)c1ccccc1-c1noc2ccccc12 [Example 91, hydrochloride]
Group label: class 1

Compound: CS(=O)(=O)c1ccc(F)c(C[C@H](N)c2ccccc2-c2noc3cc(F)ccc23)n1 [Example 20, hydrochloride]
Group label: class 1

Compound: N[C@@H](Cc1cccc(CCO)n1)c1ccccc1-c1noc2ccccc12 [Example 100, hydrochloride]
Group label: class 1

Compound: CS(=O)(=O)c1ccc(F)c(C[C@H](N)c2ccccc2-c2noc3c(F)cccc23)n1 [Example 26, hydrochloride]
Group label: class 0

Compound: N#Cc1cccc(C[C@H](N)c2ccccc2-c2noc3ccccc23)n1 [Example 116, hydrochloride]
Group label: class 0

Compound: N[C@@H](Cc1ccccn1)c1ccccc1-c1noc2ccccc12 [Example 42, hydrochloride]
Group label: class 0

----------
Molecular target: hNav1.5 (Homo sapiens (Human))
Sequence (Q14524 whole entry): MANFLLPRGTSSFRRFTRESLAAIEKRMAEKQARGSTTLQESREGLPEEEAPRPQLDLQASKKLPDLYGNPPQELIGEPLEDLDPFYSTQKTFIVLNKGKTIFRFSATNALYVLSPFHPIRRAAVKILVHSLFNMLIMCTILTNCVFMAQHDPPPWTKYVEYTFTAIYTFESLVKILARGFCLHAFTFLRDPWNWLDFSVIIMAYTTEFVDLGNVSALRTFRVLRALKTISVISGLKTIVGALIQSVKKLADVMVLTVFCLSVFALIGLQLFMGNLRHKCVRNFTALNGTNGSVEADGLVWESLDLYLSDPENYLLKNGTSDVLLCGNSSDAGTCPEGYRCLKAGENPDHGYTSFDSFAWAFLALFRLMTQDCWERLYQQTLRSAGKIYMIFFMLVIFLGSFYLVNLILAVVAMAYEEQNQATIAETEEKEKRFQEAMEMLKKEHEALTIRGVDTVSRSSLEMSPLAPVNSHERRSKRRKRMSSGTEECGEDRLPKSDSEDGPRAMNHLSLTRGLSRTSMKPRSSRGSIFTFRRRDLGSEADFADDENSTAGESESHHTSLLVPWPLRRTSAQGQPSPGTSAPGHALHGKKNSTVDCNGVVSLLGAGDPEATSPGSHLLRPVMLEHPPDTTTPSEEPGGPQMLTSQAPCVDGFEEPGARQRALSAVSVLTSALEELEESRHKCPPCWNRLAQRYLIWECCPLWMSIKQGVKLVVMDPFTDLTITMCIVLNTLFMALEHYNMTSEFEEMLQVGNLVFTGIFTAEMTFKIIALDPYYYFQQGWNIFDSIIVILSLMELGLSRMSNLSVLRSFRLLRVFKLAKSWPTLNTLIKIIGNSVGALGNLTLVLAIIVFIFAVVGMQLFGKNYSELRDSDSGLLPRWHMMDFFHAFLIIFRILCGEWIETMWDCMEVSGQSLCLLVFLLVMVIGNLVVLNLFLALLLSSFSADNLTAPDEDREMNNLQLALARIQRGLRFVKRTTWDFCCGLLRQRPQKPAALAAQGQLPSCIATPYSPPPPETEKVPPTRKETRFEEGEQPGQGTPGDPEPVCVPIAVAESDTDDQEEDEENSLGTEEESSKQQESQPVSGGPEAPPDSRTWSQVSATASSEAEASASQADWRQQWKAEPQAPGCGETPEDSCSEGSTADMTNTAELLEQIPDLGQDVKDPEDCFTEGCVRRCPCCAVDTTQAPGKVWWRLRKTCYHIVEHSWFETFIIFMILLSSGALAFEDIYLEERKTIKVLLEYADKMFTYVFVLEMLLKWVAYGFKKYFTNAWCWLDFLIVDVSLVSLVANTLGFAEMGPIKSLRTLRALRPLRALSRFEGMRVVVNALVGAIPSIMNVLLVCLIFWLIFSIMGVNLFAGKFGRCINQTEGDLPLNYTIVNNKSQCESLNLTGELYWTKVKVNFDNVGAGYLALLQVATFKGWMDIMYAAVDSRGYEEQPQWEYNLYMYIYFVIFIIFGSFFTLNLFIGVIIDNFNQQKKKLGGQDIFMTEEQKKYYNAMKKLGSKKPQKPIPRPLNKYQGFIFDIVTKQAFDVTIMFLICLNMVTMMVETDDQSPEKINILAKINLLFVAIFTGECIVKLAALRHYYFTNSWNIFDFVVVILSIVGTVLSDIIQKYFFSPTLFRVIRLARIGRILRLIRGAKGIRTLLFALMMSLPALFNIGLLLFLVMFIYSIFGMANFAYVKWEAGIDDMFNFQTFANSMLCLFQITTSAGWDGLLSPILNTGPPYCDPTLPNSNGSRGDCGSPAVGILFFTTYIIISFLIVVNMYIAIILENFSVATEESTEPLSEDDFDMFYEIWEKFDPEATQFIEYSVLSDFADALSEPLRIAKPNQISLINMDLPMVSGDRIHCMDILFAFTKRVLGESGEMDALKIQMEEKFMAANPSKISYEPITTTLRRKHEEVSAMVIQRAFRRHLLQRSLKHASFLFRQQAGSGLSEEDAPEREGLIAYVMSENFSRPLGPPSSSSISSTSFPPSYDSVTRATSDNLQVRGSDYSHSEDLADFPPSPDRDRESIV
Structures can show the parent of a compound that is named as a salt.
Label Criterion met when IC50 is strictly below 7 µM; otherwise label Criterion not met.

Compound: CC(C)n1nc(-c2ccccc2[C@@H](N)Cc2cccc(C#N)n2)c2ccccc21 [Example 67]
Group label: Criterion not met
//
Compound: N#Cc1ccc(C[C@H](N)c2ccccc2-c2noc3ccccc23)nc1 [Example 93, hydrochloride]
Group label: Criterion met
//
Compound: CC[C@@H](c1ccccn1)[C@H](N)c1ccccc1-c1noc2ccccc12 [Example 46, hydrochloride]
Group label: Criterion met
//
Compound: N#Cc1ccc2c(-c3ccccc3[C@@H](N)Cc3cccc(OCCO)n3)noc2c1 [Example 99, hydrochloride]
Group label: Criterion not met
//
Compound: Cc1ccc(-c2noc3ccccc23)c([C@@H](N)Cc2ccccn2)c1 [Example 36, hydrochloride]
Group label: Criterion met
//
Compound: Cc1cccc(C[C@H](N)c2c(F)cccc2-c2noc3ccccc23)n1 [Example 112, hydrochloride]
Group label: Criterion not met
//
Compound: COCc1ccc2c(-c3ccccc3[C@@H](N)Cc3ccccn3)noc2c1 [Example 39]
Group label: Criterion not met
//
Compound: N[C@@H](Cc1cccc(-c2cn[nH]c2)n1)c1ccccc1-c1noc2ccccc12 [Example 91, hydrochloride]
Group label: Criterion met
//
Compound: N[C@@H](Cc1ccccn1)c1ccccc1-c1noc2cc(CCO)ccc12 [Example 40]
Group label: Criterion not met
//
Compound: Cc1ccc(C[C@H](N)c2ccccc2-c2noc3ccccc23)nc1 [Example 92, hydrochloride]
Group label: Criterion met
//
Compound: N#Cc1cccc(C[C@H](N)c2c(F)cccc2-c2noc3ccccc23)n1 [Example 110, hydrochloride]
Group label: Criterion not met
//
Compound: N[C@@H](Cc1nc(CCO)ccc1F)c1ccccc1-c1noc2ccccc12 [Example 77, hydrochloride]
Group label: Criterion met
//
Compound: N[C@@H](Cc1cccc(Br)n1)c1ccccc1-c1noc2ccccc12 [Example 44]
Group label: Criterion met
